B1: RSPH3 (parent)
chain: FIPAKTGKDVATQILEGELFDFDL

# Variants of: B1
# Assay procedure: protein stability index of a GFP-peptide fusion (GPS, HEK-293T) (PSI 1-6); higher = more stable;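 note: lentivirally expressed fusions sorted by FACS into six bins by GFP to DsRed ratio, PSI derived from sequencing read proportions per bin multiplied by bin number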
# Test parameters: c terminus: a fixed tail appended
Readout type: protein stability index
// no unit string in output, number only

{"Chain": "FIRAKTGKDVATQILEGELFDFDL", "protein stability index": 1.94}
{"Chain": "FIPIKTGKDVATQILEGELFDFDL", "protein stability index": 1.62}
{"Chain": "FIPWKTGKDVATQILEGELFDFDL", "protein stability index": 1.6}
{"Chain": "FIPAKTGKDVATQILEGELFDVDL", "protein stability index": 2.21}
{"Chain": "FIPAKTGKDVATQILEGELFDFDI", "protein stability index": 2}
{"Chain": "FIPAKVGKDVATQILEGELFDFDL", "protein stability index": 1.6}

Prompt: Find the recorded protein stability index belonging to FIPAKTGFDVATQILEGELFDFDL and report it.
Completion: 1.32

Prompt: Find the recorded protein stability index belonging to FIPAKTGKDVATQIDEGELFDFDL and report it.
Completion: 2.58

meta.source: the supplement of paper PMC10567573
